molecular target: T1, Cynomolgus monkey NKp46 for immunization, screening, and testing (Kactus, NKP-CM146) (cynomolgus monkey, UniProt Q95JB9 22-254); assay: SPR (Biacore 8K), antibody captured on anti-human Fc, NKp46 as analyte, 1:1 fit
T1 construct: Bought protein; also called monkey NKp46 antigen protein; cynomolgus monkey NKp46 antigen
T1 sequence (Q95JB9 other isoform, or with tags, fused parts or gaps limits assumed): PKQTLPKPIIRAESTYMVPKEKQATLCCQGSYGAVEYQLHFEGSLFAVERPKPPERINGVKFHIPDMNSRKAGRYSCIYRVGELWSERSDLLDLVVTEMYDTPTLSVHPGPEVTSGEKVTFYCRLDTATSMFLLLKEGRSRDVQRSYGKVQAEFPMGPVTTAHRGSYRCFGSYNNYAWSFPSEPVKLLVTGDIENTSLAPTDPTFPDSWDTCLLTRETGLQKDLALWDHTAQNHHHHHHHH
PROPERTY_NAME: kon (M⁻¹ s⁻¹)
Use M⁻¹ s⁻¹ as the unit, but write only the number.

// below: answered binders
H2-PA45 humanized antibody (antibody, V domains shown, not shown: constant region of human IgG1) VH: EVQLVESGGGLVQPGGSLRLSCAASGRTFSRLPMAWFRQAPGKGLEFVAAISWSGGSTYYADSMKGRFTISRDNSKNTAYLQMNSLRAEDTAVYYCAAVGDSAPYSATIVYTDARAYAYWGQGTLVTVSS: 76700
H2-PA31 humanized antibody (antibody, human IgG1, V domains shown, not shown: constant region of human IgG1) VH: EVQLVESGGGLVQPGGSLRLSCAVSGRTFSRLPMGWFRQAPGKGLEFVAAISWSSSTTYYADSVKGRFTISRDNSKNTAYLQMNSLRAEDTAVYYCAAVGGSLDYSATVVYTAARAYADWGQGTLVTVSS: 77500

Query: Which kon reading was recorded for the binder H2-PA27 humanized antibody (antibody, human IgG1, V domains shown, not shown: constant region of human IgG1) VH: QVQLVESGGGVVQPGRSLRLSCAASGRTESWYRMGWFRQAPGKGLEVVARISGDTNIKYYAGSVKGRFTISRDNSKNTLYLQMSSLRAEDTAVYYCAADRTGATWDYWGQGTLVTVSS ?
Response: 252000

Query: Could you do the same for H1-PC11 humanized antibody (antibody, human IgG1, V domains shown, not shown: constant region of human IgG1) VH: EVQLVESGGGLVQPGGSLRLSCAASPYSANSFSMAWFRQAPGKGLEGVACIQAESGSTNVAPSVKGRFTISQDNSKNTLYLQMNSLRAEDTAVYYCAAFKRNVGGCELRPEHWRFWGQGTLVTVSS , please?
Response: 51300
